# kinase still bound, per cent of control per record follows
Measured target: TRPM6 (human)
Assay notes: KINOMEscan competition binding
Condition description: compound 10.0 µM
Please reply with the bare figure in % and do not write the unit itself.

> print(dat)
                           substance.smiles                        reported.property  output.unit  test.value
1  N#CCNC(=O)c1ccc(-c2ccnc(Nc3ccc(N4CCOCC4)cc3)n2)cc1  kinase still bound, per cent of control            %         100
2  C=CC(=O)Nc1cc(-n2c(=O)ccc3cnc4ccc(-c5cn[nH]c5)cc4c32)ccc1C  kinase still bound, per cent of control            %          71
3  COc1cc2ncnc(-n3nc(-c4ccccn4)nc3N)c2cc1OC  kinase still bound, per cent of control            %          61
4  COc1cc(C(=O)N2CCC(N3CCN(C)CC3)CC2)ccc1Nc1ncc2c(n1)N(C)c1ccccc1C(=O)N2C  kinase still bound, per cent of control            %         100
5  O=C(Nc1cccc(Nc2ncc(Br)c(NCCc3cnc[nH]3)n2)c1)N1CCCC1  kinase still bound, per cent of control            %          76

Query string: Recall the recorded kinase still bound, per cent of control for `CCN1CCN(C(=O)Cc2ccc(Nc3ncc(F)c(Nc4ccc(C(=O)Nc5ccccc5Cl)cc4)n3)cc2)CC1` with TRPM6 (human) and state it.
Result string: 96

Query string: Recall the recorded kinase still bound, per cent of control for `CN(C)C/C=C/C(=O)Nc1ccc(C(=O)Nc2cccc(Nc3nccc(-c4cccnc4)n3)c2)cc1` with TRPM6 (human) and state it.
Result string: 100

Query string: Recall the recorded kinase still bound, per cent of control for `COCC(=O)NC/C=C/c1ccc2ncnc(Nc3ccc(Oc4ccc(C)nc4)c(C)c3)c2c1` with TRPM6 (human) and state it.
Result string: 100

Query string: Recall the recorded kinase still bound, per cent of control for `COc1cc2ncn(-c3cc(OCc4ccccc4C(F)(F)F)c(C(N)=O)s3)c2cc1OC` with TRPM6 (human) and state it.
Result string: 100

Query string: Recall the recorded kinase still bound, per cent of control for `COc1ccc(N(C(=O)Oc2c(C)cccc2C)c2ccnc(Nc3ccc(N4CCN(C)CC4)cc3)n2)c(OC)c1` with TRPM6 (human) and state it.
Result string: 100
